Target: T1, Nbp2, Q12163
T1 sequence (Q12163 103-180, looked up): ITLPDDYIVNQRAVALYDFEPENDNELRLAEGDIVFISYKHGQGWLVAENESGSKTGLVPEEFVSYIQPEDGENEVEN
Test: SPOT array
Details: median of control spots 357
measured-quantity: SPOT intensity

See these solved cases before continuing.
binder	measurement
APERAVPILPPRNNV	0
HPRFVSPRIPSRIVK	2
GPPPPLPPPLFPSSS	0

1: QHQQRQPKRPKRYSL
2: VATSTSPKLPPRGKQ
3: STPQTMRQAPKRPDA
4: RRRDFGAPANKRPRR
Incoming: Please put the entries in order of rising SPOT intensity. Returns: the labels arranged in the requested order.
Outgoing: 2, 4, 1, 3
